- System: MS2 coat protein
- method: apparent KD of MS2 coat protein; designed switch direction (-1 OFF switch, 1 ON switch): -1; higher = weaker reporter binding
- condition-summary: input ligand: microRNA oligo, concentration not stated
endpoint: apparent KD of MS2 coat protein
A bare number is not enough; add the unit after it.

UCAAGUAUGUAGGAUAUCGAUGUCUACGGACAUCGAGAAGGACGUACAUGAGGAUCACCCAUGUAACUUGCAUG [Exclusion 6 - B - 10:d] (Eterna round: R96, puzzle: Exclusion 6) : 144 nM

If you can, please state the reported apparent KD of MS2 coat protein value of AUCAGCUCGUCAGGAUAUGAACAUGAGGAUCACCCAUGUAAGAUCAAGCUGCUUCGGCAGCAAGUUCAGAAGGGACGAGCUGAU [ENG2/10-B3] (Eterna round: R96, puzzle: Exclusion NG 2) .
93.3 nM

Try CGUGACUCAGGAUAUCUAUAGUAUCACAUGAGGAUCACCCAUGUCCAGCGAAAGCUGGAGGGAGAAGGGAGUCACG [Fiskers Ex 5 - 42] (Eterna round: R96, puzzle: Exclusion 5) next.
230 nM

Try AAUGAUUGACGAGGAUAUUGUGGUGAAACACGACGAGAAGGCGUAUGUCACAUGAGGAUCACCCAUGUGAGCUUUGUGGAUAUA [Ex NG1 #68] (Eterna round: R96, puzzle: Exclusion NG 1) next.
24.1 nM

Try UUAUAUAGUAUAGGAUAUUAGAGGAGAAUGGUGAUAGAGACAUGAGGAUCACCCAUGUGAGGAGAUAAGAAGGGUAAUAAUUAU [AK ExNG2-V2-3] (Eterna round: R96, puzzle: Exclusion NG 2) next.
176 nM
